System: human breast cancer cell line (MCF-7)
Assay: MTT cell viability / in vitro cytotoxicity assay, MCF-7
Type: cell-based
Details: MCF7, MCF-7 cells, 48 h incubation, read-out: anticancer IC50 MCF-7
Mark each entry TRUE if its IC50 sits below 0.2 µM, and FALSE for all others.

As a guide, the following entries are already answered.
COC(=O)c1c(C(=O)OC)c2cc(C)c3ccccc3n2c1C(=O)c1cc(C(F)(F)F)cc(C(F)(F)F)c1 [Compound 3a]
FALSE
CCOC(=O)c1cc(C(=O)c2ccccc2[N+](=O)[O-])n2c1cc(C)c1ccccc12 [Compound 3d]
TRUE
COC(=O)c1c(C(=O)OC)c2cc(C)c3ccccc3n2c1C(=O)c1ccc(F)cc1 [Compound 3i]
FALSE

Query block: Dear colleague, could you confirm whether IC50 of CCOC(=O)c1cc(C(=O)c2cc(C(F)(F)F)cc(C(F)(F)F)c2)n2c1cc(C)c1ccccc12 [Compound 3b] falls below 0.2 µM? Thanks.
Result block: TRUE

Query block: Please indicate whether the reported IC50 of COC(=O)c1c(C(=O)OC)c2cc(C)c3ccccc3n2c1C(=O)c1ccccc1[N+](=O)[O-] [Compound 3c] is strictly below 0.2 µM.
Result block: TRUE
